# target of assay: THR alpha-LBD (Homo sapiens)
# Construct: except that THR alpha-LBD of a final concentration 0.25 nM was used; purchased Invitrogen PV4687
# Sequence (P10827 163-410 isoform P10827-2 limits assumed, other chains not shown): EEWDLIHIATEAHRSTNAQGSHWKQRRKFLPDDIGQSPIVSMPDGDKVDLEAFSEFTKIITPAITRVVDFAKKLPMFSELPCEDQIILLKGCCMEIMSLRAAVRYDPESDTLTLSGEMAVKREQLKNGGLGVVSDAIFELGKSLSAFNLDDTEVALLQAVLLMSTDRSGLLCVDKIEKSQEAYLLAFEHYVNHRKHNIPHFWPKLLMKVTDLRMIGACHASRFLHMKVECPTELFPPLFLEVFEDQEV
# measurement notes: THR-α Coactivator Peptide Recruitment Assay (LanthaScreen TR-FRET)
# Type: biochemical
# experimental context: TR-FRET coactivator recruitment, THR alpha-LBD 0.25 nM; read-out: THRα EC50
pEC50: −log10 of the molar value.
Answer each item with its documented pEC50.

The recorded pEC50 for entry CNS(=O)(=O)c1cc(Oc2c(Cl)cc(-n3nc(C(F)(F)F)c(=O)[nH]c3=O)cc2Cl)ccc1O [Compound 20] equals 6.70 to 8.70

The recorded pEC50 for entry O=C(CNS(=O)(=O)c1cc(Oc2c(Cl)cc(-n3nc(C(F)F)c(=O)[nH]c3=O)cc2Cl)ccc1O)NC1CCC1 [Compound 62] equals 6.00 to 6.70

The recorded pEC50 for entry Cc1nn(-c2cc(Cl)c(Oc3cc(S(=O)(=O)N[C@H]4CCOC4)c(O)cn3)c(Cl)c2)c(=O)[nH]c1=O [Compound 164] equals 6.00 to 6.70

The recorded pEC50 for entry O=c1[nH]c(=O)n(-c2cc(Cl)c(Oc3ccc(O)c([S@TB3](=O)(=O)N4CCOCC4)c3)c(Cl)c2)nc1C(F)F [Compound 15] equals > 8.70

The recorded pEC50 for entry O=C(C1CC1)N1CC(NS(=O)(=O)c2cc(Oc3c(Cl)cc(-n4nc(C(F)F)c(=O)[nH]c4=O)cc3Cl)ccc2O)C1 [Compound 52] equals < 6.00

The recorded pEC50 for entry O=C(N[C@H]1CCOC1)c1cc(Oc2c(Cl)cc(-n3nc(C(F)F)c(=O)[nH]c3=O)cc2Cl)ccc1O [Compound 98] equals 6.70 to 8.70

The recorded pEC50 for entry O=c1[nH]c(=O)n(-c2cc(Cl)c(Oc3cc(S(=O)(=O)N[C@@H]4CC[C@@H]4O)c(O)cn3)c(Cl)c2)nc1C(F)F (stereo in doubt) [Compound 170] equals 6.00 to 6.70

The recorded pEC50 for entry O=c1[nH]c(=O)n(-c2cc(Cl)c(Oc3ccc(O)c(S(=O)(=O)N4CC[C@@H](O)C4)c3)c(Cl)c2)nc1C(F)F [Compound 76] equals 6.70 to 8.70

* * *

# target of assay: THR beta-LBD (Homo sapiens, UniProt P10828)
# Construct: THR beta-LBD (the final concentration is 0.5 nM) was added to the 384-well assay plate; purchased Invitrogen PV4686
# Sequence (P10828 217-461 limits assumed): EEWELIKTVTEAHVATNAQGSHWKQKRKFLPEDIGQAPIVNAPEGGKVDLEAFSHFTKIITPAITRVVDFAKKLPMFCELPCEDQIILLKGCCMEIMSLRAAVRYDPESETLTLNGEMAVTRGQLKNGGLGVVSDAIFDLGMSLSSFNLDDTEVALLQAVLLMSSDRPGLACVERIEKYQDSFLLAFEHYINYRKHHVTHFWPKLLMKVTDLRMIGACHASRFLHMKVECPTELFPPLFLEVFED
# measurement notes: THR-β Coactivator Peptide Recruitment Assay (LanthaScreen TR-FRET)
# Format: biochemical
# experimental context: TR-FRET coactivator recruitment, THR beta-LBD 0.5 nM
# Procedure: A time-resolved FRET (TR-FRET) assay was used to test representative compounds of the application. THR-β Coactivator Peptide Recruitment Assay were conducted by using Invitrogen's LanthaScreen™ TR-FRET Thyroid Receptor beta Assay Kit (Catalog no. PV4686). […] After a gentle mix and incubation at room temperature for 2 h, the signal was read on the EnVision Multilabel Plate Reader at wavelengths of 520 nm and 495 nm. […]
parameter: THRβ Emax

> print(dat)
                                   compound  parameter      result
1  O=c1[nH]c(=O)n(-c2cc(Cl)c(Oc3ccc(O)c(S(=O)(=O)NCC4(O)CC4)c3)c(Cl)c2)nc1C(F)F [Compound 80]  THRβ Emax  A (90~110)
2  O=c1[nH]c(=O)n(-c2cc(Cl)c(Oc3cc(S(=O)(=O)NC4COC4)c(O)cn3)c(Cl)c2)nc1C(F)F [Compound 158]  THRβ Emax  A (90~110)
3  O=c1[nH]c(=O)n(-c2cc(Cl)c(Oc3ccc(O)c(S(=O)(=O)NC45CC(O)(C4)C5)c3)c(Cl)c2)nc1C(F)F [Compound 81]  THRβ Emax  A (90~110)
